# targetSystem: Gonadotropin-releasing hormone receptor (Rattus norvegicus) (UniProt P30969)
# Sequence (P30969 whole entry): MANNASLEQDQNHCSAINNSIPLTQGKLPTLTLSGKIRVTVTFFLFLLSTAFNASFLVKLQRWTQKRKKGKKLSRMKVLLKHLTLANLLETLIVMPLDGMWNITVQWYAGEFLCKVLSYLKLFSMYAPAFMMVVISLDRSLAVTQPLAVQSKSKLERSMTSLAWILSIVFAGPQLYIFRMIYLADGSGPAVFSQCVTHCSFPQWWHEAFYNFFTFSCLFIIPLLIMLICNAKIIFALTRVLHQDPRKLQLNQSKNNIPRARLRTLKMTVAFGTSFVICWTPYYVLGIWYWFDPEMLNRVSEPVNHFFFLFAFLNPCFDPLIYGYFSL
# runDescription: In vitro inhibition of LH release determined in rat pituitary cells at a dose of 3 ug of analogue and 1 ng of LHRH
# Type: functional, cell-based
# conditionLabel: Pituitary gland cell
Square brackets hold non-standard residues; d marks the D form. Peptide text beside a SMILES is read from it. 2Nal = N[C@@H](Cc1ccc2ccccc2c1)C(=O)O
Entries and their Activity values follow.

What Activity value was documented for this molecule, CCNC(=O)[C@@H]1CCCN1C(=O)[C@H](CCCCNC(C)C)NC(=O)[C@H](CC(C)C)NC(=O)C(Cc1ccc2ccccc2c1)NC(=O)[C@H](Cc1ccc(O)cc1)NC(=O)[C@H](CO)NC(=O)C(Cc1ccc2ccccc2c1)NC(C)=O (stereo in doubt) ?
4

// query Activity value for entry CC(=O)NC(Cc1ccc2ccccc2c1)C(=O)N[C@@H](CO)C(=O)N[C@@H](Cc1ccc(O)cc1)C(=O)NC(Cc1ccc2ccccc2c1)C(=O)N[C@@H](CC(C)C)C(=O)N[C@@H](CCCN=C(N)N)C(=O)N1CCC[C@H]1C(=O)N[C@H](C)C(N)=O (stereo in doubt)
3

Requested field: Activity. Item: CC(=O)N[C@@H](Cc1ccc2ccccc2c1)C(=O)N[C@@H](CCCN=C(N)N)C(=O)N[C@@H](C)C(N)=O
145

Sample CC(=O)N[C@@H](Cc1ccc2ccccc2c1)C(=O)N[C@@H](CO)C(=O)N[C@@H](Cc1ccc2ccccc2c1)C(=O)N[C@@H](CC(C)C)C(=O)N[C@@H](CCCN=C(N)N)C(=O)N1CCC[C@H]1C(=O)N[C@@H](C)C(N)=O (Ac-[2Nal]S[2Nal]LRPA-NH2) — what was its Activity?
4

What Activity value was documented for this molecule, CC(=O)N[C@@H](Cc1ccc2ccccc2c1)C(=O)N[C@@H](CC(C)C)C(=O)N[C@@H](CCCN=C(N)N)C(=O)N[C@@H](C)C(N)=O (Ac-[2Nal]LRA-NH2) ?
136

====

In this section, each of the compounds is paired with its reported Activity.
# targetSystem: Gonadotropin-releasing hormone receptor (Rattus norvegicus) (UniProt P30969)
# runDescription: In vitro antagonistic activity against LH release in rat pituitary cells for control.
# Type: functional, cell-based
# conditionLabel: Pituitary gland cell
Square brackets hold non-standard residues; d marks the D form. Peptide text beside a SMILES is read from it. 2Nal = N[C@@H](Cc1ccc2ccccc2c1)C(=O)O
Respond with the number and no other words.

Guide cases for Activity, answers given:
[
  {
    "compound": "CC(=O)N[C@@H](Cc1ccc(Cl)cc1)C(=O)N[C@@H](Cc1cccnc1)C(=O)N[C@@H](CO)C(=O)N[C@@H](Cc1ccc(O)cc1)C(=O)NC(Cc1ccc2ccccc2c1)C(=O)N[C@@H](CC(C)C)C(=O)N[C@@H](CCCN=C(N)N)C(=O)N1CCC[C@H]1C(=O)N[C@H](C)C(N)=O (stereo in doubt)",
    "recordedMetric": "Activity",
    "result": 3.5
  },
  {
    "compound": "CCNC(=O)[C@@H]1CCCN1C(=O)C(CCCN=C(N)N)NC(=O)[C@H](CC(C)C)NC(=O)[C@H](CCCCNC(=O)c1ccccn1)NC(=O)C(CCCCNC(=O)c1ccccn1)NC(=O)[C@H](CO)NC(=O)[C@H](Cc1ccc2ccccc2c1)NC(C)=O (some centres undefined)",
    "recordedMetric": "Activity",
    "result": 2.1
  },
  {
    "compound": "CC(=O)N[C@@H](Cc1ccc2ccccc2c1)C(=O)N[C@@H](CO)C(=O)N[C@@H](Cc1ccc2ccccc2c1)C(=O)N[C@@H](CC(C)C)C(=O)N[C@@H](CCCN=C(N)N)C(=O)N1CCC[C@H]1C(=O)N[C@@H](C)C(N)=O (Ac-[2Nal]S[2Nal]LRPA-NH2)",
    "recordedMetric": "Activity",
    "result": 2.3
  }
]

Which Activity is listed for CCNC(=O)[C@@H]1CCCN1C(=O)[C@H](CC(C)C)NC(=O)[C@H](Cc1ccc2ccccc2c1)NC(=O)[C@H](Cc1ccc(O)cc1)NC(=O)[C@H](CO)NC(=O)[C@H](Cc1ccc2ccccc2c1)NC(C)=O (Ac-[2Nal]SY[2Nal]LP-NHEt) ?
3.1

====

# targetSystem: Gonadotropin-releasing hormone receptor (Rattus norvegicus) (UniProt P30969)
# runDescription: In vitro inhibition of LH release in rat pituitary cells at a dose of 1 ug of analogue and 1 ng of LHRH.
# Format: functional, cell-based
# conditionLabel: Pituitary gland cell
Square brackets hold non-standard residues; d marks the D form. Peptide text beside a SMILES is read from it. 2Nal = N[C@@H](Cc1ccc2ccccc2c1)C(=O)O
recordedMetric: Activity
// return just the number, without any unit appended

Here is how some compounds turned out for Activity.
[
  {
    "compound": "CCNC(=O)[C@@H]1CCCN1C(=O)[C@H](CCCN=C(N)N)NC(=O)[C@H](CC(C)C)NC(=O)[C@H](Cc1ccc2ccccc2c1)NC(C)=O (Ac-[2Nal]LRP-NHEt)",
    "targetSystem": "Gonadotropin-releasing hormone receptor (Rattus norvegicus) (UniProt P30969)",
    "Activity": 148
  },
  {
    "compound": "CC(=O)N[C@@H](Cc1ccc2ccccc2c1)C(=O)N[C@@H](C)C(N)=O (Ac-[2Nal]-Ala-NH2)",
    "targetSystem": "Gonadotropin-releasing hormone receptor (Rattus norvegicus) (UniProt P30969)",
    "Activity": 148
  },
  {
    "compound": "CCNC(=O)[C@@H]1CCCN1C(=O)[C@H](CCCCNC(C)C)NC(=O)[C@H](CC(C)C)NC(=O)C(Cc1ccc2ccccc2c1)NC(=O)[C@H](Cc1ccc(O)cc1)NC(=O)[C@H](CO)NC(=O)C(Cc1ccc2ccccc2c1)NC(C)=O (stereo in doubt)",
    "targetSystem": "Gonadotropin-releasing hormone receptor (Rattus norvegicus) (UniProt P30969)",
    "Activity": 6
  },
  {
    "compound": "CC(=O)N[C@@H](Cc1ccc(Cl)cc1)C(=O)N[C@@H](Cc1cccnc1)C(=O)N[C@@H](CO)C(=O)N[C@@H](Cc1ccc(O)cc1)C(=O)NC(Cc1ccc2ccccc2c1)C(=O)N[C@@H](CC(C)C)C(=O)N[C@@H](CCCN=C(N)N)C(=O)N1CCC[C@H]1C(=O)N[C@H](C)C(N)=O (stereo in doubt)",
    "targetSystem": "Gonadotropin-releasing hormone receptor (Rattus norvegicus) (UniProt P30969)",
    "Activity": 145
  },
  {
    "compound": "CC(=O)N[C@H](Cc1ccc2ccccc2c1)C(=O)N[C@H](Cc1cccnc1)C(=O)N[C@@H](CO)C(=O)N[C@@H](Cc1ccc(O)cc1)C(=O)N[C@H](Cc1ccc2ccccc2c1)C(=O)N[C@@H](CC(C)C)C(=O)N[C@@H](CCCN=C(N)N)C(=O)N1CCC[C@H]1C(=O)N[C@H](C)C(N)=O",
    "targetSystem": "Gonadotropin-releasing hormone receptor (Rattus norvegicus) (UniProt P30969)",
    "Activity": 3
  },
  {
    "compound": "CCNC(=O)[C@@H]1CCCN1C(=O)[C@H](CCCN=C(N)N)NC(=O)[C@H](CC(C)C)NC(=O)[C@@H](Cc1cccnc1)NC(=O)[C@H](Cc1ccc(O)cc1)NC(=O)[C@H](CO)NC(=O)[C@@H](Cc1ccc2ccccc2c1)NC(C)=O",
    "targetSystem": "Gonadotropin-releasing hormone receptor (Rattus norvegicus) (UniProt P30969)",
    "Activity": 34
  },
  {
    "compound": "CC(=O)NC(Cc1ccc2ccccc2c1)C(=O)N[C@@H](CCCCNC(=O)c1ccccn1)C(=O)N[C@@H](CCCN=C(N)N)C(=O)NC(C)C(N)=O (single isomer, unassigned)",
    "targetSystem": "Gonadotropin-releasing hormone receptor (Rattus norvegicus) (UniProt P30969)",
    "Activity": 147
  },
  {
    "compound": "CCNC(=O)[C@@H]1CCCN1C(=O)[C@H](CC(C)C)NC(=O)[C@H](Cc1ccc2ccccc2c1)NC(=O)[C@H](Cc1ccc(O)cc1)NC(=O)[C@H](CO)NC(=O)[C@H](Cc1ccc2ccccc2c1)NC(C)=O (Ac-[2Nal]SY[2Nal]LP-NHEt)",
    "targetSystem": "Gonadotropin-releasing hormone receptor (Rattus norvegicus) (UniProt P30969)",
    "Activity": 155
  }
]

Next item in the queue.
Endpoint output: Activity of CC(=O)N[C@@H](Cc1ccc2ccccc2c1)C(=O)N[C@@H](CCCN=C(N)N)C(=O)N[C@@H](C)C(N)=O . Value?
151

====

# targetSystem: Gonadotropin-releasing hormone receptor (Rattus norvegicus)
# runDescription: In vitro inhibition of LH release determined in rat pituitary cells at a dose of 3 ug of analogue and 1 ng of LHRH
# Assay type: functional, cell-based
# conditionLabel: Pituitary gland cell
Square brackets hold non-standard residues; d marks the D form. Peptide text beside a SMILES is read from it. 2Nal = N[C@@H](Cc1ccc2ccccc2c1)C(=O)O
recordedMetric: Activity
Please give only the number in your answer, with no unit.

Sample records with Activity:
[
  {
    "compound": "CC(=O)N[C@@H](Cc1ccc2ccccc2c1)C(=O)N[C@@H](CO)C(=O)N[C@@H](Cc1ccc(O)cc1)C(=O)N[C@@H](Cc1cccnc1)C(=O)N[C@@H](CC(C)C)C(=O)N[C@@H](CCCN=C(N)N)C(=O)N1CCC[C@H]1C(=O)N[C@H](C)C(N)=O",
    "Activity": 11
  },
  {
    "compound": "CCNC(=O)[C@@H]1CCCN1C(=O)[C@H](CCCN=C(N)N)NC(=O)[C@H](CC(C)C)NC(=O)[C@H](Cc1ccc2ccccc2c1)NC(C)=O (Ac-[2Nal]LRP-NHEt)",
    "Activity": 120
  },
  {
    "compound": "CC(=O)N[C@@H](Cc1ccc2ccccc2c1)C(=O)N[C@@H](Cc1ccc(O)cc1)C(=O)N[C@@H](Cc1ccc2ccccc2c1)C(=O)N[C@@H](CCCN=C(N)N)C(=O)N[C@@H](C)C(N)=O (Ac-[2Nal]Y[2Nal]RA-NH2)",
    "Activity": 135
  }
]

Now look at this entry.
Reported Activity, compound CC(=O)N[C@H](Cc1ccc2ccccc2c1)C(=O)N[C@@H](CO)C(=O)N[C@@H](Cc1ccc(O)cc1)C(=O)N[C@H](Cc1ccc2ccccc2c1)C(=O)N[C@@H](CC(C)C)C(=O)N[C@@H](CCCN=C(N)N)C(=O)N1CCC[C@H]1C(N)=O : ____
3
